assay: Primary qHTS for inhibitors of SARS-S pseudo-typed particle cell entry (AID 1479145); settings: SARS-S pseudotyped particle cell entry, luciferase reporter; series mostly up to 57.1 µM; note: nearly all actives have a fitted effect of over 45% in size
Inconclusive results are not listed. The source made the active and inactive calls. Calls come from the whole dose curve.
Assign a class; possible classes are active, inactive

Query: GET /call?item= `C[C@H]1O[C@@H](O[C@H]2[C@@H](O)C[C@H](O[C@H]3[C@@H](O)C[C@H](O[C@H]4CC[C@@]5(C)[C@H](CC[C@@H]6[C@@H]5CC[C@]5(C)[C@@H](C7=CC(=O)OC7)CC[C@]65O)C4)O[C@@H]3C)O[C@@H]2C)C[C@H](O)[C@@H]1O` returns the recorded outcome of this test.
Result: inactive

Query: GET /call?item= `Nc1cc(-c2ccncc2)c[nH]c1=O` returns the recorded outcome of this test.
Result: inactive

Query: GET /call?item= `O=C1OCCN1/N=C/c1ccc([N+](=O)[O-])o1` returns the recorded outcome of this test.
Result: inactive

Query: GET /call?item= `CC(C)OC(=O)C(C)(C)Oc1ccc(C(=O)c2ccc(Cl)cc2)cc1` returns the recorded outcome of this test.
Result: inactive

Query: GET /call?item= `CC[C@]1(O)C[C@@H]2CN(CCc3c([nH]c4ccccc34)[C@@](C(=O)OC)(c3cc4c(cc3OC)N(C)[C@H]3[C@@](O)(C(=O)OC)[C@H](OC(C)=O)[C@]5(CC)C=CCN6CC[C@]43[C@@H]65)C2)C1` returns the recorded outcome of this test.
Result: inactive

Query: GET /call?item= `CCCCc1oc2ccc(NS(C)(=O)=O)cc2c1C(=O)c1ccc(OCCCN(CCCC)CCCC)cc1` returns the recorded outcome of this test.
Result: active

Query: GET /call?item= `COc1c(C)c2c(c(O)c1C/C=C(\C)CCC(=O)O)C(=O)OC2` returns the recorded outcome of this test.
Result: inactive

Query: GET /call?item= `CN(C)c1cc(NC(=O)CNC(C)(C)C)c(O)c2c1C[C@@H]1C[C@H]3[C@H](N(C)C)C(=O)C(C(N)=O)=C(O)[C@@]3(O)C(=O)C1=C2O` returns the recorded outcome of this test.
Result: inactive

Query: GET /call?item= CO/N=C1\CN(c2nc3c(cc2F)c(=O)c(C(=O)O)cn3C2CC2)CC1CN (stereo not given) returns the recorded outcome of this test.
Result: inactive

Query: GET /call?item= `COc1cc2c(cc1OC)[C@@H]1CC(=O)[C@@H](CC(C)C)CN1CC2` returns the recorded outcome of this test.
Result: inactive

Query: GET /call?item= `Cc1ccc(NC(=O)c2ccc(CN3CCN(C)CC3)cc2)cc1Nc1nccc(-c2cccnc2)n1` returns the recorded outcome of this test.
Result: active

Query: GET /call?item= `O=C(O)c1ccc(-n2nc(-c3ccccc3O)nc2-c2ccccc2O)cc1` returns the recorded outcome of this test.
Result: inactive

Query: GET /call?item= `CN(C)CCc1c[nH]c2ccc(CS(=O)(=O)N3CCCC3)cc12` returns the recorded outcome of this test.
Result: inactive

Query: GET /call?item= `CC[C@@]1(O)C(=O)OCc2c1cc1n(c2=O)Cc2cc3c(CN(C)C)c(O)ccc3nc2-1` returns the recorded outcome of this test.
Result: active

Query: GET /call?item= `Nc1ccncc1` returns the recorded outcome of this test.
Result: inactive

Query: GET /call?item= `Cc1onc(-c2c(Cl)cccc2Cl)c1C(=O)N[C@@H]1C(=O)N2[C@@H]1SC(C)(C)[C@@H]2C(=O)O` returns the recorded outcome of this test.
Result: inactive

Query: GET /call?item= `Cc1ncc([N+](=O)[O-])n1CCO` returns the recorded outcome of this test.
Result: inactive

Query: GET /call?item= `C#CCN(C)[C@H](C)Cc1ccccc1` returns the recorded outcome of this test.
Result: inactive

Query: GET /call?item= CN1C(=O)CC(C)(c2ccccc2)C1=O (stereo not given) returns the recorded outcome of this test.
Result: inactive

Query: GET /call?item= Nc1cccc2c1CN(C1CCC(=O)NC1=O)C2=O (stereo not given) returns the recorded outcome of this test.
Result: inactive

Query: GET /call?item= `C[C@](N)(Cc1ccc(O)c(O)c1)C(=O)O` returns the recorded outcome of this test.
Result: inactive

Query: GET /call?item= `Cc1c(O)cccc1C(=O)N[C@@H](CSc1ccccc1)[C@H](O)CN1C[C@H]2CCCC[C@H]2C[C@H]1C(=O)NC(C)(C)C` returns the recorded outcome of this test.
Result: inactive

Query: GET /call?item= `C[C@@H]1O[C@@H](O[C@H]2C[C@@H](O)[C@]3(CO)[C@H]4[C@H](O)C[C@]5(C)[C@@H](C6=CC(=O)OC6)CC[C@]5(O)[C@@H]4CC[C@]3(O)C2)[C@H](O)[C@H](O)[C@H]1O` returns the recorded outcome of this test.
Result: inactive

Query: GET /call?item= `NS(=O)(=O)Cc1noc2ccccc12` returns the recorded outcome of this test.
Result: inactive

Query: GET /call?item= `CCCc1cc(=O)[nH]c(=S)[nH]1` returns the recorded outcome of this test.
Result: inactive

Query: GET /call?item= `CO/N=C(\C(=O)N[C@@H]1C(=O)N2C(C(=O)O)=C(CSc3nc(=O)c(O)nn3C)CS[C@H]12)c1csc(N)n1` returns the recorded outcome of this test.
Result: inactive

Query: GET /call?item= `CCN(C)C(=O)Oc1cccc([C@H](C)N(C)C)c1` returns the recorded outcome of this test.
Result: inactive

Query: GET /call?item= `COc1cc(C(=O)NCc2ccc(OCCN(C)C)cc2)cc(OC)c1OC` returns the recorded outcome of this test.
Result: inactive

Query: GET /call?item= `CCN(CC)C(=O)N[C@@H]1C=C2c3cccc4[nH]cc(c34)C[C@@H]2N(C)C1` returns the recorded outcome of this test.
Result: inactive

Query: GET /call?item= `N[C@@H]1CONC1=O` returns the recorded outcome of this test.
Result: inactive

Query: GET /call?item= COc1ccc(C(CN(C)C)C2(O)CCCCC2)cc1 (stereo not given) returns the recorded outcome of this test.
Result: inactive

Query: GET /call?item= `C[C@@H]1C[C@H]2[C@@H]3CCC4=CC(=O)C=C[C@]4(C)[C@@]3(F)[C@@H](O)C[C@]2(C)[C@@]1(O)C(=O)CO` returns the recorded outcome of this test.
Result: inactive

Query: GET /call?item= `N=c1nc(N2CCCCC2)cc(N)n1O` returns the recorded outcome of this test.
Result: inactive

Query: GET /call?item= `N[C@@H](Cc1ccc(N(CCCl)CCCl)cc1)C(=O)O` returns the recorded outcome of this test.
Result: active

Query: GET /call?item= Cc1ccc2c(n1)Oc1ccc(C(C)C(=O)OCC(=O)N(C)C)cc1C2 (stereo not given) returns the recorded outcome of this test.
Result: inactive

Query: GET /call?item= `CC1(C)O[C@@H]2[C@@H](CO[C@@]3(COS(N)(=O)=O)OC(C)(C)O[C@@H]23)O1` returns the recorded outcome of this test.
Result: inactive

Query: GET /call?item= `Nc1nc(N)c2nc(-c3ccccc3)c(N)nc2n1` returns the recorded outcome of this test.
Result: inactive

Query: GET /call?item= `NNc1nncc2ccccc12` returns the recorded outcome of this test.
Result: inactive

Query: GET /call?item= `Cn1cc[nH]c1=S` returns the recorded outcome of this test.
Result: inactive

Query: GET /call?item= `O=C(NCCN1CCOCC1)c1ccc(Cl)cc1` returns the recorded outcome of this test.
Result: inactive
